Assay: Lethal dose in mice (LD50) (following i.v. dosing)
Settings: mouse, in vivo, iv
Reported LD50 values follow for various molecules
Readout Label: LD50 (mg/kg)

>>> readout_value("C=C(c1c(C)c(C)cc(Cl)c1OCC(O)CNC(C)C)n1ccnc1 (stereo unspecified)")
15.5
>>> readout_value("C=C(c1c(C)ccc(C)c1OCC(O)CNC(C)C)n1ccnc1 (stereo unspecified)")
30.7
>>> readout_value("C=C(c1cccc(C)c1OCC(O)CNC(C)(C)C)n1ccnc1 (stereo unspecified)")
23.1
>>> readout_value("CC(C)N(CCC(C(N)=O)(c1ccccc1)c1ccccn1)C(C)C (stereo unspecified) [DISOPYRAMIDE]")
30
>>> readout_value("C=C(c1ccccc1OCC(O)CN(C)C)n1ccnc1 (stereo unspecified)")
45.4
>>> readout_value("C=C(c1cc(Cl)ccc1OCC(O)CNC(C)(C)C)n1cccn1 (stereo unspecified)")
32.5
